Quick reference: TGI of the listed items.
Tested on: UACC-257 melanoma
Experiment: NCI tumour cell line growth inhibition, 48 h

MOLECULE: CN(C)/N=N/c1nc2c(c(=O)n(C)c(=O)n2C)n1CC(O)CO (stereo not given)
UNITS OF MEASURE: µM
SIGN: >
TGI: 100
//
MOLECULE: Cc1cc(N=C2C=C(Br)C(=O)C(Br)=C2)cc(CN(CC(=O)O)CC(=O)O)c1O
UNITS OF MEASURE: µM
SIGN: >
TGI: 100
//
MOLECULE: C=C(C)CC1(O[Si](C)(C)C)C(=O)C(OCC)=C1OCC (stereo not given)
UNITS OF MEASURE: µM
SIGN: >
TGI: 100
//
MOLECULE: C=CC(=O)Nc1cc(N2CCN(CC)CC2)ccc1Nc1cc(N(C)C(=O)Nc2c(Cl)c(OC)cc(OC)c2Cl)ncn1
UNITS OF MEASURE: µM
SIGN: =
TGI: 30.1
//
MOLECULE: Cc1c2cc(Cl)c3ccccc3c2c[n+]2ccccc12
UNITS OF MEASURE: µM
SIGN: =
TGI: 17.9
//
MOLECULE: COc1cnc2c(c1)C(=O)c1c-2n(CCCNCCO)c(=O)c2ccncc12
UNITS OF MEASURE: µM
SIGN: =
TGI: 9.02
//
MOLECULE: O=c1c(-c2ccccc2)c(SCCO)n(-c2ccccc2)c(=S)n1-c1ccccc1
UNITS OF MEASURE: µM
SIGN: >
TGI: 100
//
MOLECULE: O=c1oc(C(C(F)(F)F)C(F)(F)F)nc2ccccc12
UNITS OF MEASURE: µM
SIGN: >
TGI: 100
//
MOLECULE: COc1cc(C2C3=C(COC3=O)Oc3cc4c(cc32)OCO4)cc(OC)c1O (stereo not given)
UNITS OF MEASURE: µM
SIGN: >
TGI: 61.7
//
MOLECULE: Cc1nn2c(/C=C3/C(=O)Nc4cc(Cl)ccc43)c(-c3ccccc3)nc2s1
UNITS OF MEASURE: µM
SIGN: =
TGI: 8.32

---

Test system: HCT-15 colon
Experiment: NCI tumour cell line growth inhibition, 48 h

COMPOUND: Cc1cc2c([nH]c3ccccc32)c(O)c1-c1c(C)cc2c([nH]c3ccccc32)c1O
TESTED ON: HCT-15 colon
SIGN: =
TGI / µM: 23.8
--
COMPOUND: C=CCOn1c(C=C)nc2ccc(C)cc21
TESTED ON: HCT-15 colon
SIGN: =
TGI / µM: 68.2
--
COMPOUND: CC(=O)NC1C(OCc2ccccc2)OC(CO)C(O)C1OC(C)C(=O)NC(C(=O)NC(CCC(=O)NCCCCNc1c2ccccc2nc2cccc([N+](=O)[O-])c12)C(N)=O)C(C)C (stereo unspecified)
TESTED ON: HCT-15 colon
SIGN: =
TGI / µM: 40.2
--
COMPOUND: COc1cc2cc(C(=O)N3CC(COS(C)(=O)=O)c4ccc(O)cc43)[nH]c2c(OC)c1OC (stereo unspecified)
TESTED ON: HCT-15 colon
SIGN: =
TGI / µM: 0.000858
--
COMPOUND: C[C@]12CC[C@H](O)CC1=CC[C@@H]1C2CC[C@]2(C)Nc3c(cnn3-c3ccccc3)CC12 (stereo partly specified)
TESTED ON: HCT-15 colon
SIGN: =
TGI / µM: 18.6
--
COMPOUND: C/C(=N\Nc1nc2cc(C(F)(F)F)ccc2s1)c1ccccn1
TESTED ON: HCT-15 colon
SIGN: >
TGI / µM: 38.9
--
COMPOUND: C[Si](C)(C)/C=C\CCO
TESTED ON: HCT-15 colon
SIGN: >
TGI / µM: 100
--
COMPOUND: COc1cc(NC(=O)CCSc2nc3ccc(C)cc3c(=O)n2Cc2ccccc2)cc(OC)c1OC
TESTED ON: HCT-15 colon
SIGN: >
TGI / µM: 100
--
COMPOUND: C=CCC1C(O[Si](C)(C)C(C)(C)C)C(CO[Si](C)(C)C(C)(C)C)OC1n1ccc(=O)[nH]c1=O (stereo unspecified)
TESTED ON: HCT-15 colon
SIGN: =
TGI / µM: 2.64
--
COMPOUND: COc1cccc(N=N/C(=N\NC(=O)c2ccc(C)cc2)c2ccc(N(CCC#N)CCC#N)cc2C)c1
TESTED ON: HCT-15 colon
SIGN: >
TGI / µM: 100
--
COMPOUND: NNC(=O)C(=O)N/N=C1\CCC(=O)CC1C(=O)CCC(=O)Nc1ccc(Cl)cc1 (stereo unspecified)
TESTED ON: HCT-15 colon
SIGN: >
TGI / µM: 100
--
COMPOUND: c1cncc(CNCc2cccnc2)c1
TESTED ON: HCT-15 colon
SIGN: >
TGI / µM: 100
--
COMPOUND: COc1cc2c(cc1OC)C(=O)/C(=C/c1cc(-c3ccc4c(c3)OCO4)n[nH]1)C2
TESTED ON: HCT-15 colon
SIGN: =
TGI / µM: 2.81
--
COMPOUND: CCCCCC[C@H](C)Nc1nc2ccccc2c2occc12
TESTED ON: HCT-15 colon
SIGN: =
TGI / µM: 22
--
COMPOUND: S=c1nc(N/N=C/c2ccco2)c2cn[nH]c2[nH]1
TESTED ON: HCT-15 colon
SIGN: >
TGI / µM: 100
--
COMPOUND: COC(=O)CC(NC(=O)OCc1ccccc1)C(C(=O)OCc1ccccc1)C(C)(OC)OC (stereo unspecified)
TESTED ON: HCT-15 colon
SIGN: >
TGI / µM: 100
--
COMPOUND: CC1=Nc2ccccc2/C1=C\c1c(C)[nH]c2ccccc12
TESTED ON: HCT-15 colon
SIGN: =
TGI / µM: 31.5
--
COMPOUND: CCOC(=O)Nn1c(CC#N)nnc1Cc1ccccc1
TESTED ON: HCT-15 colon
SIGN: >
TGI / µM: 100
--
COMPOUND: CC1=NN(C(=O)c2ccc(Cl)cc2)C(=O)/C1=C/c1ccccc1O
TESTED ON: HCT-15 colon
SIGN: >
TGI / µM: 100
--
COMPOUND: CC1=Cc2ccc(C)cc2C(=O)C1=O
TESTED ON: HCT-15 colon
SIGN: =
TGI / µM: 47.1
--
COMPOUND: O=C(c1cccs1)N1CCN(C(=O)c2cccs2)C1=S
TESTED ON: HCT-15 colon
SIGN: =
TGI / µM: 17.7

---

Tested on: SNB-75 CNS
Assay: NCI tumour cell line growth inhibition, 48 h

COMPOUND: Cc1cc2c([nH]c3ccccc32)c(O)c1-c1c(C)cc2c([nH]c3ccccc32)c1O
UNITS OF MEASURE: µM
SIGN: =
TGI: 27.5

COMPOUND: NCc1cccc(O)c1O
UNITS OF MEASURE: µM
SIGN: >
TGI: 100

COMPOUND: Nc1ccc(S(=O)(=O)Nc2nc3ccccc3nc2N2CCCCCC2)cc1
UNITS OF MEASURE: µM
SIGN: >
TGI: 100

COMPOUND: COC[C@@H](N=Cc1ccc([N+](=O)[O-])cc1)C(C)C
UNITS OF MEASURE: µM
SIGN: >
TGI: 100

COMPOUND: O=c1c(-c2ccccc2)c(SCCO)n(-c2ccccc2)c(=S)n1-c1ccccc1
UNITS OF MEASURE: µM
SIGN: >
TGI: 100

COMPOUND: C[C@]12CC[C@H](O)CC1=CC[C@@H]1C2CC[C@]2(C)Nc3c(cnn3-c3ccccc3)CC12 (stereo not given in full)
UNITS OF MEASURE: µM
SIGN: =
TGI: 9.12

COMPOUND: O=C(Oc1ccc(CO[N+](=O)[O-])cc1)c1ccccc1
UNITS OF MEASURE: µM
SIGN: =
TGI: 0.333

COMPOUND: Cc1nc2ccc(NC(=O)CCNC(=O)CCCc3ccc(CC(C(=O)O)C(=O)O)cc3)cc2s1
UNITS OF MEASURE: µM
SIGN: >
TGI: 100

COMPOUND: COc1cccc(C=O)c1[O-].[O]=[U](=[O])([OH2+])[OH2+]
UNITS OF MEASURE: µM
SIGN: =
TGI: 81.3

COMPOUND: CN(C)/N=N/c1nc2c(c(=O)n(C)c(=O)n2C)n1CC(O)CO (stereo not given)
UNITS OF MEASURE: µM
SIGN: >
TGI: 100

---

Test system: SK-MEL-2 melanoma
Test: NCI tumour cell line growth inhibition, 48 h
Quick reference: TGI of the listed items.

COMPOUND: O=C(N/N=C/C=C/c1ccccc1)c1ccccc1Nc1ccccc1C(=O)N/N=C/C=C/c1ccccc1
TGI: > 100 µM

COMPOUND: COc1cc(C)c(C2NC(=O)c3ccccc3N2)cc1C (stereo unspecified)
TGI: 0.924 µM

COMPOUND: O=c1[nH]c2ccccc2n1CCCN1CCC(n2c(=O)[nH]c3cc(Cl)ccc32)CC1
TGI: 35.7 µM

COMPOUND: O=C(O)CCNCCCCNCCC(=O)O
TGI: > 100 µM

COMPOUND: CCCC(=O)N[C@H]1C2C3CC4C5CC(C42)C1(C)C53 (stereo partly specified)
TGI: > 100 µM

COMPOUND: O=C(Cc1ccc(Cl)c(Cl)c1)NCC1(N2CCCCC2)CCCCC1
TGI: > 100 µM
